- protocolNotes: Cytotoxicity against mock-infected African green monkey Vero118 cells assessed as inhibition of cell survival after 5 days by microscopic analysis
- Type: cell-based
- conditionSummary: chlorocebus sabaeus, 120 h
The reader will find reported CC50 values listed item by item below.

Recorded results for 2 molecules are shown here.
get_value(item= "Nc1ncc(-c2cn(COCCO)cn2)c(O)n1" , readout=CC50) returns > 200 µM

get_value(item= "OCCOCn1cnc(-c2cnc(O)nc2O)c1" , readout=CC50) returns > 200 µM

New cases:
get_value(item= "COc1nc(N)ncc1-c1cn(COCCO)cn1" , readout=CC50) returns 120 µM

* * *

- System: Vero
- protocolNotes: Cytotoxicity against mock-infected African green monkey Vero cells assessed as inhibition of cell survival after 3 days by CellTiter 96 AQueous Non-Radioactive Cell Proliferation Assay
- Assay type: cell-based
- conditionSummary: chlorocebus sabaeus, 72 h
outcomeMeasure: CC50 (µM)
Provide the reading as a plain figure in µM.

get_value(item= "COc1nc(N)ncc1-c1cn(COCCO)cn1" , readout=CC50) returns 71

// data source = ChEMBL document CHEMBL3596107
